assay: qHTS of pediatric cancer cell lines to identify multiple opportunities for drug repurposing: Confirmatory screen for MG 63 (6-TG R) cells (AID 1347119); conditions: MG-63 (6-TG resistant) osteosarcoma viability; series mostly up to 45.9 µM; also: nearly all actives have a fitted effect of over 55% in size; also: potency is read from the fitted curve at half-maximal effect
Results filed as inconclusive are left out. The source made the active and inactive calls. Calls follow the shape of the dose curve; as a rule, active = well fitted cell-killing curve with a large enough effect; inconclusive = small, poorly fitted or top-dose-only effect, or effect the other way; inactive = no such curve, though single readings can be large or run the other way.
Property Measured: Potency

// known answers, use as guide
Cc1cnc(Nc2ccc(F)cc2Cl)nc1-c1c[nH]c(C(=O)N[C@H](CO)c2cccc(Cl)c2)c1; inactive
CNC(=O)c1c(F)cccc1Nc1nc(Nc2cc3c(cc2OC)CCN3C(=O)CN(C)C)nc2[nH]ccc12; 3.69 µM (active)
Cc1[nH]nc2ccc(-c3cncc(OC[C@@H](N)Cc4ccccc4)c3)cc12; 3.69 µM (active)
Cc1[nH]c2ccccc2c1CCNCc1ccc(C=CC(=O)NO)cc1; 0.165 µM (active)
Cc1c(NC(=O)OC[C@@H]2COCCN2)cn2ncnc(Nc3ccc4c(cnn4Cc4cccc(F)c4)c3)c12; inactive

Moving on to the next compound.
**Q:** Please look up its Potency: CC1=C(CO)C(=O)O[C@@H]([C@@H](C)[C@H]2CC[C@H]3[C@@H]4C[C@H]5O[C@]56[C@@H](O)C=CC(=O)[C@]6(C)[C@@H]4CC[C@]23C)C1
**A:** inactive
